# log10 EC50 values compiled below
biological target: T1, human CD3 (human, UniProt P07766 23-207); test: cell binding, human CD3 (activated human PBMC); human CD3 (first number of the cell)
T1 construct: whole, on cells; also called CD3 on human T-cells
T1 sequence (P07766 23-207): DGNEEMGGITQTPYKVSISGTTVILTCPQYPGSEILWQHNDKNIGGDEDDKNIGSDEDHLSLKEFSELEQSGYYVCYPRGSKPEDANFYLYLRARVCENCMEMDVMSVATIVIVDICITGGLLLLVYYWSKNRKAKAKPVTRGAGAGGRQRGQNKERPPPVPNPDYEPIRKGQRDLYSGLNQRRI
Hello, just confirming the data are log10 of EC50 with units of nM.

Consider the following illustrative entries.
Fab8-HK129-Folate (Fab, V domains shown, pAF at HK129 (Kabat) conjugated to folate (oxime), also called Fab8 (E. coli, folate-conjugated)) VH: EVQLVESGGGLVQPGGSLRLSCAASGFTFNTYAMNWVRQAPGKGLEWVGRIRSKYNNYATYYADSVKDRFTISRDDSKNILYLQMNSLKTEDTAVYYCVRHGNFGNSYVSWFAYWGQGTLVTVSS VL: QAVVTQEPSLTVSPGGTVTLTCRSSTGAVTTSNYANWFQQKPGQAPRGLIGGTNKRAPGVPARFSGSLLGGKAALTLSGAQPEDEAEYYCALWYSNLWVFGGGTKLTVLG : 1.89
Fab9-HK129-Folate (Fab, V domains shown, pAF at HK129 (Kabat) conjugated to folate (oxime), also called Fab9 (E. coli, folate-conjugated)) VH: EVQLVESGGGLVQPGGSLRLSCAASGFTFNTYAMNWVRQAPGKGLEWVGRIRSKYNNYATYYADSVKDRFTISRDDSKNSLYLQMNSLKTEDTAVYYCVRHGNFGNSYVSWFAYWGQGTLVTVSS VL: QAVVTQEPSLTVSPGGTVTLTCRSSTGAVTTSNYANWFQQKPGQAPRGLIGGTNKRAPGVPARFSGSLLGGKAALTLSGAQPEDEAEYYCALWYSNLWVFGGGTKLTVLG : 1.84
Fab7-HK129-Folate (Fab, V domains shown, pAF at HK129 (Kabat) conjugated to folate (oxime), also called Fab7 (E. coli, folate-conjugated)) VH: EVQLVESGGGLVQPGGSLRLSCAASGFTFNTYAMNWVRQAPGKGLEWVARIRSKYNNYATYYADSVKDRFTISRDDSKNILYLQMNSLKTEDTAVYYCARHGNFGNSYVSWFAYWGQGTLVTVSS VL: QAVVTQEPSLTVSPGGTVTLTCRSSTGAVTTSNYANWVQQKPGQAPRGLIGGTNKRAPWVPARFSGSLLGGKAALTLSGAQPEDEAEYYCALWYSNLWVFGGGTKLTVLG : 1.37
Fab1-HK129-Folate (Fab, V domains shown, pAF at HK129 (Kabat) conjugated to folate (oxime), From E. coli; also called Folate lead; parent control) VH: EVQLVESGGGLVQPGGSLRLSCAASGFTFNTYAMNWVRQAPGKGLEWVARIRSKYNNYATYYADSVKDRFTISRDDSKNILYLQMNSLKTEDTAVYYCVRHGNFGNSYVSWFAYWGQGTLVTVSS VL: QAVVTQEPSLTVSPGGTVTLTCRSSTGAVTTSNYANWVQQKPGQAPRGLIGGTNKRAPGTPARFSGSLLGGKAALTLSGAQPEDEAEYYCALWYSNLWVFGGGTKLTVLG : 0.36

Record Fab10-HK129-Folate (Fab, V domains shown, pAF at HK129 (Kabat) conjugated to folate (oxime), also called Fab10 (E. coli, folate-conjugated)) VH: EVQLVESGGGLVQPGGSLRLSCAASGFTFSTYAMNWVRQAPGKGLEWVARIRSKYNNYATYYADSVKDRFTISRDDSKNILYLQMNSLKTEDTAVYYCVRHGNFGNSYVSWFAYWGQGTLVTVSS VL: QAVVTQEPSLTVSPGGTVTLTCRSSTGAVTTSNYANWFQQKPGQAPRGLIGGTNKRAPGVPARFSGSLLGGKAALTLSGAQPEDEAEYYCALWYSNLWVFGGGTKLTVLG , field log10 EC50: 1.92
